FYI, the data here is from patent US6602896B1.

- Test system: LDL receptor expression
- TEST_DETAILS: Northern blotting of LDL receptor mRNA in HepG2 cells
- Format: cell-based, human
- TEST_PARAMETERS: HepG2 cells, inhibitor added 30 min before SB202190 (2.5 μM, 4 h)
ATTRIBUTE_MEASURED: effect on SB202190-induced LDL receptor expression

1. CN(C)CCCn1cc(C2=C(c3c[nH]c4ccccc34)C(=O)NC2=O)c2ccccc21 [Bis I]    has no effect
2. Cn1c2ccccc2c2c3c(c4c5ccccc5n(CCC#N)c4c21)CNC3=O [Go6976]    has no effect
